- Target System: cTRPA1 (Gallus gallus)
- Sequence (W8VTH6 1-1126): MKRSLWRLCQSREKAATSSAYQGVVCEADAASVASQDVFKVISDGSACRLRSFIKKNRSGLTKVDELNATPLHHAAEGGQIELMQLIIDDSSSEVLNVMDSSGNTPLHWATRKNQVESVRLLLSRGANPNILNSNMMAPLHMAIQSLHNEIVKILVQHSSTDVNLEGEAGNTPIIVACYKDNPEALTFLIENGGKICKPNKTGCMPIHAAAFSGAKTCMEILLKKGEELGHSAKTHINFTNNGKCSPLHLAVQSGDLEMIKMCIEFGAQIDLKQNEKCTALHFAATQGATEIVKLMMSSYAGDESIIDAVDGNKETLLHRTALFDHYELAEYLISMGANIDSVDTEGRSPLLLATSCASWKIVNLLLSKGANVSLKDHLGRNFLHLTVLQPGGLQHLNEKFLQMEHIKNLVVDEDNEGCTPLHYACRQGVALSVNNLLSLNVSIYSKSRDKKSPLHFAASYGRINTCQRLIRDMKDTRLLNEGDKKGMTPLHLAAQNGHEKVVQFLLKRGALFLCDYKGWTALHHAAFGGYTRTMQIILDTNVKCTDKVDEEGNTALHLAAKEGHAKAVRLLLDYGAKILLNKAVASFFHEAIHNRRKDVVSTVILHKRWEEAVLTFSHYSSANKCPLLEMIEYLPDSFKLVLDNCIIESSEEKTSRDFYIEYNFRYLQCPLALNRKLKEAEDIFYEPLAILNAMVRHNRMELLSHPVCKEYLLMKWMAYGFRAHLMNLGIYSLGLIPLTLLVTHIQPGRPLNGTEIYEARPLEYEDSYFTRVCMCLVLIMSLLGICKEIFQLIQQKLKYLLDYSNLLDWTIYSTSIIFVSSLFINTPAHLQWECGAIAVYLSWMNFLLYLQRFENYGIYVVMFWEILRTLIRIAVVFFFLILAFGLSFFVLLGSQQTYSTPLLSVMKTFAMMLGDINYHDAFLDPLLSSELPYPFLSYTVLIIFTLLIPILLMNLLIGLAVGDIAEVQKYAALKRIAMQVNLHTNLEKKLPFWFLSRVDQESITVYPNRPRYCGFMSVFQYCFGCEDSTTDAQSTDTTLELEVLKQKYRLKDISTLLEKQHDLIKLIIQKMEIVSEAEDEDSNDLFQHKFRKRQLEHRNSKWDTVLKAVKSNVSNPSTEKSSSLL
- Assay Comment: Whole-cell patch-clamp, HEK293 cells expressing cTRPA1
- Type: cell-based, chicken
Property: pIC50
The quantity pIC50 is defined as the negative base-10 logarithm of the molar concentration.

I'd like to know its pIC50. The compound in question is CN1CCC(=C2c3ccccc3CC(=O)c3sccc32)CC1
5.24

----------
- Target System: cTRPA1 (Gallus gallus, UniProt W8VTH6)
- Assay Comment: Whole-cell patch-clamp, HEK293 cells expressing cTRPA1
- Type: cell-based, chicken
- Reported Conditions: manual whole-cell patch-clamp, TOCP-induced currents; read-out: IC50 on cTRPA1 channels
Property: IC50
Form entry: enter the amount, then its unit.

I'd like to know its IC50. The compound in question is CNCC[C@H](Oc1cccc2ccccc12)c1cccs1 [duloxetine]
4.69 µM

----------
- Target System: hTRPA1 (Homo sapiens, UniProt O75762)
- Sequence (O75762 whole entry): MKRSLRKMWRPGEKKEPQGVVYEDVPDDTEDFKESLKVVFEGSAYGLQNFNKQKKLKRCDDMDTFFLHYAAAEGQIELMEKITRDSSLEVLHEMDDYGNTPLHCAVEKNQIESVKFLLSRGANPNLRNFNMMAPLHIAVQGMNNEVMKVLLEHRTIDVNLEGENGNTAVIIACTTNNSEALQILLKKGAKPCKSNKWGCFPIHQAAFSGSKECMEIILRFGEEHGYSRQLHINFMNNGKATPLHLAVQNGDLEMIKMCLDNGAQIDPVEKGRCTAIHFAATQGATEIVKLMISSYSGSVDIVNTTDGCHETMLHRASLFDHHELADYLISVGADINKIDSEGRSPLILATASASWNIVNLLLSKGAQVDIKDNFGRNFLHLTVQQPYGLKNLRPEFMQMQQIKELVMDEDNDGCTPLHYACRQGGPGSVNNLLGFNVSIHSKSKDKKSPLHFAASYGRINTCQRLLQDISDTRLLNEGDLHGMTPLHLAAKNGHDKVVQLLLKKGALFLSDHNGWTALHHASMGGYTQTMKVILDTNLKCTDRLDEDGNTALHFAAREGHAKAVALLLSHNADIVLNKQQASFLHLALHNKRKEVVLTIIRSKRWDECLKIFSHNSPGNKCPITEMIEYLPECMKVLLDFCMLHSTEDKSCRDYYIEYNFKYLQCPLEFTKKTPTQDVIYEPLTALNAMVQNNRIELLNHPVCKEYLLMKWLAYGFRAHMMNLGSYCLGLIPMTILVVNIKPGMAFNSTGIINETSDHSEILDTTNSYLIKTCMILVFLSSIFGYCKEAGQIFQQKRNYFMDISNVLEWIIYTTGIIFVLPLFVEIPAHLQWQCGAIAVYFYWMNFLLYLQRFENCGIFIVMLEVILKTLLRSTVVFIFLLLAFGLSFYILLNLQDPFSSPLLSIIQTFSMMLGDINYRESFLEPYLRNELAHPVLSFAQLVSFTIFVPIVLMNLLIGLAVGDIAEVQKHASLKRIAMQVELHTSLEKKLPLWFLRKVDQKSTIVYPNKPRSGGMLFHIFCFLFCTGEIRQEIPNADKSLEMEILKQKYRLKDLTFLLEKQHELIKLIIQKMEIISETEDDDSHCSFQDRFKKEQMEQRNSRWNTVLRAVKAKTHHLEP
- Assay Comment: cell-based
- Reported Conditions: whole-cell patch-clamp
Property: pEC50
The quantity pEC50 is defined as the negative base-10 logarithm of the molar concentration.

I'd like to know its pEC50. The compound in question is CCOC(=O)CC(SP(=S)(OC)OC)C(=O)OCC (stereo not shown) [malathion]
4.85
